# tested_system: TXNRD1 (Homo sapiens)
# Construct: made in house
# Sequence (Q16881 151-649): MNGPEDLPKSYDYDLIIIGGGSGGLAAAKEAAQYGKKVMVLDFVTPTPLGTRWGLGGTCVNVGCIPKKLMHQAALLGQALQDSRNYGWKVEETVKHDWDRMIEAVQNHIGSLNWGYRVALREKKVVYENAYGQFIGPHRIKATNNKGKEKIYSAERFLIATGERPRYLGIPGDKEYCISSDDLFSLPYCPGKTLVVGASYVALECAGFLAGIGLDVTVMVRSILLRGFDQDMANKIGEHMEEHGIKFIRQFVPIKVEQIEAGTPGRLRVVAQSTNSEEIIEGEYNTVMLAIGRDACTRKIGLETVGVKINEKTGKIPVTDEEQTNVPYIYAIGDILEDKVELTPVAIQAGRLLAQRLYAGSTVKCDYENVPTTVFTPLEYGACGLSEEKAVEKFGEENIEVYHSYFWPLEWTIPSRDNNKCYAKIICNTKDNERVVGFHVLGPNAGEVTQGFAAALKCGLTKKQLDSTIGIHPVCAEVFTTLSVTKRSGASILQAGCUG
# test_summary: TXNRD1 activity assay, pure enzyme (Fig. 1A)
# Format: biochemical
# condition_info: recombinant TXNRD1, Fig. 1A assay conditions; read-out: IC50 TXNRD1 inhibition
property_label: pIC50
Formally, pIC50 is defined as -log10 of the concentration c, with c in mol/L.

>  <molecule>
COC(=O)c1ccc([C@@H]2c3[nH]c4ccccc4c3C[C@@H](C(=O)OC)N2C(=O)CCl)cc1

>  <reported_result>
5.10

$$$$

For the next question, use this molecule.
Query: TXNRD1 (Homo sapiens) / pIC50 / COc1ccc(N(C(=O)CCl)C(C(=O)NCCc2ccccc2)c2cccs2)cc1Cl (stereo not shown) : value?
Reply: 4.71

----------
# tested_system: TXNRD1 (Homo sapiens)
# Construct: made in house
# test_summary: TXNRD1 orthogonal assays (selenite reduction, DTNB reduction; Extended Data Fig. 2)
# Type: biochemical
# condition_info: orthogonal assays, Extended Data Fig. 2A and 2B; read-out: curve-fit IC50 TXNRD1
property_label: pIC50
Quick note: pIC50 means taking -log10 of the concentration in moles per liter.

>  <molecule>
COc1ccc(N(C(=O)CCl)C(C(=O)NCCc2ccccc2)c2cccs2)cc1Cl (centres unmarked)

>  <pIC50>
6.29

$$$$

Okay, next one:
Query: Requested field: pIC50. Item: `COC(=O)c1ccc([C@@H]2c3[nH]c4ccccc4c3C[C@@H](C(=O)OC)N2C(=O)CCl)cc1`
Reply: 6.13

----------
# Test system: H1975 cells
# test_summary: Cytotoxicity assay, H1975 cells
# Type: cell-based, human
# condition_info: 24 h, media not supplemented with selenium
# Method: Cell culture—H1975 and A549 cells were cultured in RPMI-1640 medium (HyClone) with Earle's salts supplemented and penicillin/streptomycin (100 μg/ml), while HT1080 cells were cultured in MEM medium for Fig. 2 experiments. For all other cellular experiments, A549 cells were cultured in DMEM 4.5 g/L glucose medium (Gibco), and H1975 cells in RPMI-1640 ATCC Modification (Gibco). […]
property_label: IC50 (nM)
Respond with the bare value in nM.

Query: So what IC50 did `COC(=O)c1ccc([C@@H]2c3[nH]c4ccccc4c3C[C@@H](C(=O)OC)N2C(=O)CCl)cc1` get with H1975 cells?
Reply: 150

----------
# System: A549 cells
# test_summary: Cytotoxicity assay, A549 cells
# Format: cell-based, human
# condition_info: 24 h, media not supplemented with selenium
pIC50: −log10 of the molar value.
Recorded pIC50 values for a group of compounds are listed next.

>  <compound>
COC(=O)c1ccc([C@@H]2c3[nH]c4ccccc4c3C[C@@H](C(=O)OC)N2C(=O)CCl)cc1 [RSL3, (1S,3R)RSL3]

>  <tested_system>
A549 cells

>  <pIC50>
~6.30

$$$$

// below: pIC50 requested for another compound
Query: Which measured pIC50 belongs to COc1ccc([N+](=O)[O-])c(S(=O)(=O)c2ccc(Cl)cc2)n1 [TRi-1] , tested on A549 cells?
Reply: ~4.70

----------
# tested_system: GPX1 (Homo sapiens, UniProt P07203)
# Sequence (P07203 whole entry): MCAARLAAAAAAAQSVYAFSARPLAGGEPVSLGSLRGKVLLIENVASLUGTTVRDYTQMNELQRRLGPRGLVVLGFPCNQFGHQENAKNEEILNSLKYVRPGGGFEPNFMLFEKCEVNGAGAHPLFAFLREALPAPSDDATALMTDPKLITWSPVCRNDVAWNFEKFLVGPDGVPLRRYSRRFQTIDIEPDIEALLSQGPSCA
# test_summary: GPX1 activity assay, pure enzyme (NADPH consumption, cumene hydroperoxide)
# condition_info: recombinant GPX1, 30 min preincubation; read-out: IC50 GPX1 inhibition
property_label: IC50

Query: Sample [Cl][Hg][Cl] [mercuric chloride] — what was its IC50?
Reply: < 10 µM

Query: Find the recorded IC50 belonging to O=C(O)CC(S)C(=O)O (stereo not drawn) and report it.
Reply: < 10 µM

Query: Field request: IC50 | item: `CC(=O)OC[C@H]1O[C@@H]([S-])[C@H](OC(C)=O)[C@@H](OC(C)=O)[C@@H]1OC(C)=O.CCP(CC)CC.[Au+]`
Reply: 4.7 µM

----------
TXNRD2 (Homo sapiens) data, read-out IC50
Sequence (Q9NNW7 37-524): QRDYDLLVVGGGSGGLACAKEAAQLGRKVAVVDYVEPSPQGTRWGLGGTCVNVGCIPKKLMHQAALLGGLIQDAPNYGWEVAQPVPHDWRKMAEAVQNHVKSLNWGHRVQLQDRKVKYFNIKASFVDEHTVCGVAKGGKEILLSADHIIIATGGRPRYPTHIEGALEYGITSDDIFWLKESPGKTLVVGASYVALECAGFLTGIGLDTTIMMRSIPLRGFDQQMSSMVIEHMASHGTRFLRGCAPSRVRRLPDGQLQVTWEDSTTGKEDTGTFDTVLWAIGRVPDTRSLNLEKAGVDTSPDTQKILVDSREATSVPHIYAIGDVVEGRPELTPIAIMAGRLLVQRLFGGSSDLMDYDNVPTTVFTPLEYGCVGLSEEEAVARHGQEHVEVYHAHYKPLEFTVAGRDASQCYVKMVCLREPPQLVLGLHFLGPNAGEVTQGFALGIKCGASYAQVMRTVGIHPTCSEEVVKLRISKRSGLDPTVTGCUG
The answer is to be given in µM; state only the numeric part.

Query: Can you look up IC50 on TXNRD2 (Homo sapiens) for COc1ccc(N(C(=O)CCl)C(C(=O)NCCc2ccccc2)c2cccs2)cc1Cl (centres unmarked) ?
Reply: 4

Query: Observed IC50 on TXNRD2 (Homo sapiens) for `COC(=O)c1ccc([C@@H]2c3[nH]c4ccccc4c3C[C@@H](C(=O)OC)N2C(=O)CCl)cc1` , please.
Reply: 9.2
